The origin of these recorded values is ChEMBL document CHEMBL1961873.

molecular target: Tyrosine-protein kinase JAK1 (Homo sapiens); conditions: at 1 µM
Recorded inhibition values for a group of compounds are listed next.

// worked examples, inhibition included
                                   compound                              study_system  data_value
0          N#Cc1cccc(Nc2ncc(-c3ccccc3)o2)c1  Tyrosine-protein kinase JAK1 (Homo sapiens)       10.7%
1  CCOc1ccc2c(-c3ccnc(Nc4cc(OC)cc(C(F)(F)F)c4)n3)cnn2n1  Tyrosine-protein kinase JAK1 (Homo sapiens)       6.23%
2         COc1ccc(Nc2ncc(-c3ccccc3)o2)cc1OC  Tyrosine-protein kinase JAK1 (Homo sapiens)       7.81%
3  CCN1CCC(C(=O)Nc2n[nH]c3nnc(-c4cccc(F)c4F)cc23)CC1  Tyrosine-protein kinase JAK1 (Homo sapiens)      -1.21%
4  CNC(=O)c1ncccc1Nc1nc(Nc2cc3c(cc2OC)CCCN3C(=O)CN(C)C)nc2[nH]ccc12  Tyrosine-protein kinase JAK1 (Homo sapiens)      -0.74%
5  CN1CCC(n2cnc(-c3ccc(F)cc3)c2-c2ccnc(NCCO)n2)CC1  Tyrosine-protein kinase JAK1 (Homo sapiens)       7.32%
6     COc1cccc(Nc2nccc(-c3cnn4ncccc34)n2)c1  Tyrosine-protein kinase JAK1 (Homo sapiens)       13.2%
7           CNC(=O)c1cncc(/C=C/c2ccccc2C)c1  Tyrosine-protein kinase JAK1 (Homo sapiens)       12.7%
8  COC(=O)Nc1nc2ccc(Oc3ccc(NC(=O)Nc4cc(C(F)(F)F)ccc4F)cc3)cc2s1  Tyrosine-protein kinase JAK1 (Homo sapiens)       9.06%
9  CCS(=O)(=O)c1ccc(OC)c(Nc2ncc(-c3cccc(C(C)=O)c3)o2)c1  Tyrosine-protein kinase JAK1 (Homo sapiens)       6.56%

Exam item: Query: inhibition; subject: `Fc1cccc(COc2ccc(Nc3ncncc3C#Cc3ccccc3)cc2Cl)c1`
Marked response: 14.7%

Exam item: Form field: reported inhibition of `COc1ccc(-c2nn3ncccc3c2-c2ccnc(Nc3ccc(F)c(F)c3)n2)cc1`
Marked response: 14.6%

Exam item: # inhibition lookup, item CC1=C(C(=O)Nc2ccc3[nH]ncc3c2)C(c2ccc(F)cc2)N=C(c2ccc(C(F)(F)F)nc2)N1 (configuration not stated)
Marked response: 1.91%

Exam item: Find the recorded inhibition belonging to `COc1cc2c(cc1Nc1nc(Nc3cccc(F)c3C(N)=O)c3cc[nH]c3n1)N(C(=O)CN1CCN(C(C)C)CC1)CC2` and report it.
Marked response: -3.81%

Exam item: So what's the measured inhibition for this one? `CS(=O)(=O)Nc1ccc(-c2cc(-c3ccccc3)cc(C(N)=O)c2N)cc1`
Marked response: 2.62%

Exam item: I am curious: what inhibition value has been reported for `COC(=O)Nc1nc2cc(Oc3ccc(NC(=O)Nc4ccccc4)cc3)ccc2[nH]1` ?
Marked response: 9.99%

Exam item: Which inhibition reading was recorded for the compound `Cc1c2ccc(N(C)c3ccnc(Nc4cccc(S(N)(=O)=O)c4)n3)cc2nn1C` ?
Marked response: 9.69%

Exam item: Which value of inhibition has been reported for `N#Cc1ccc2c(-c3ccnc(NC4CC4)n3)c(-c3ccc(F)cc3)nn2c1` in the records?
Marked response: 0.31%

Exam item: What value of inhibition has been reported for the following compound? `CCS(=O)(=O)c1ccc(OC)c(Nc2ncc(-c3cccc(F)c3)o2)c1`
Marked response: 10.4%

Exam item: Recorded inhibition of `CNC(=O)c1sc(-n2cnc3cc(OC)c(OC)cc32)cc1OCc1ccccc1C(F)(F)F` , please.
Marked response: 7.26%

Exam item: Any idea what inhibition was measured for `NS(=O)(=O)c1cccc(N/C=C2\C(=O)Nc3ccccc32)c1` ?
Marked response: 6.08%

Exam item: Which measured inhibition value corresponds to `CC(C)c1ccc(-c2cc(-c3c[nH]nc3-c3ccccn3)ccn2)cc1` ?
Marked response: 1.1%

Exam item: Could you tell me which inhibition is on file for `NS(=O)(=O)c1ccc(N/N=C2\C(=O)Nc3cccc(CCc4ccncc4)c32)cc1` ?
Marked response: 1.96%

Exam item: Fill in the blank: the reported inhibition of `CS(=O)(=O)CCNCc1ccc(-c2ccc3ncnc(Nc4ccc(OCc5cccc(C(F)(F)F)c5)cc4)c3c2)o1` is ____.
Marked response: 1.38%
